Data provenance: ChEMBL document CHEMBL2150921

Test: Therapeutic index, ratio of CC50 for human C8166 cells to EC50 for wild type HIV1 3B infected in human C8166 cells
Type: cell-based
Settings: C8166 cells infected with wild type HIV1 3B, read-out: Ratio CC50/EC50
measured-parameter: selectivity ratio
No unit in the answer, please; the number alone is enough.

- Cc1ccc(C(=O)Nc2cc(Cl)ccc2OCC(=O)Nc2ccc(S(N)(=O)=O)cc2C)cc1C: 261000
- Cc1cc(S(N)(=O)=O)ccc1NC(=O)COc1ccc(Cl)cc1NC(=O)c1cccc(F)c1: 68800
- Cc1cc(S(N)(=O)=O)ccc1NC(=O)COc1ccc(Cl)cc1NC(=O)c1cccc([N+](=O)[O-])c1: 89400

Here is another compound to look at.
[ask] What value of selectivity ratio has been recorded for this entry: COc1ccc(C(=O)Nc2cc(Cl)ccc2OCC(=O)Nc2ccc(S(N)(=O)=O)cc2C)cc1
[reply] 340
